B1: TRIM15 (parent)
chain: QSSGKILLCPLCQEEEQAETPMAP

variants of: B1; experiment: protein stability index of a GFP-peptide fusion (GPS, HEK-293T) (PSI 1-6); higher = more stable; conditions: c terminus: a fixed tail appended;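 also: lentivirally expressed fusions sorted by FACS into six bins by GFP to DsRed ratio, PSI derived from sequencing read proportions per bin multiplied by bin number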
Classification field: enter class 1 for protein stability index values not below 3, class 0 for values below it.

See these solved cases before continuing.
VAR	ASSIGNED CATEGORY
S2K	class 1
M22E	class 1
C9K	class 1
P10G	class 1
A18N	class 1
S2L	class 0
L8C	class 1
S2M	class 0

Determine whether this variant has protein stability index no lower than 3: E14N class 1

Given the entry E14D , answer whether its protein stability index meets or surpasses 3. class 1

Quick check, protein stability index >= 3? S3N class 1

hey, is protein stability index for this one >= 3? E15M class 0

Has K5I a recorded protein stability index greater than or equal to 3? class 0
